Molecular target: human PAH with the R408W mutation (Homo sapiens, UniProt P00439, R408W)
Construct: expressed in transfected cells
Sequence (P00439 whole entry R408W): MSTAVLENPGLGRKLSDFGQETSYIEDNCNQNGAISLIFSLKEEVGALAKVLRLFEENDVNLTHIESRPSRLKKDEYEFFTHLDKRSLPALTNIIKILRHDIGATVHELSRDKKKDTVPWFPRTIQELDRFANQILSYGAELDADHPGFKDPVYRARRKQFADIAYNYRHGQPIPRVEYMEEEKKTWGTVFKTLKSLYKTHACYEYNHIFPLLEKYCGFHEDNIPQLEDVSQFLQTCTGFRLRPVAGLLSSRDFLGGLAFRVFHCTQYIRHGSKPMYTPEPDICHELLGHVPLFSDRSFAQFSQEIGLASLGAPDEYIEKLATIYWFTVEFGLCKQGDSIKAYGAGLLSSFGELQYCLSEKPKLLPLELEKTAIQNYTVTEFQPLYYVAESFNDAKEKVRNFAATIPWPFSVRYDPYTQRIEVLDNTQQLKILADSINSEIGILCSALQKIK
Assay: Cell Based Phenylalanine Flux Assay
Conditions: A375 cells expressing human R408W PAH; 24 hrs compound incubation; 13C-Tyrosine by LC-MS; average where tested multiple times; read-out: AC50
Consider the following compounds; for each one, report its AC50.

[Q] State the recorded AC50 for this entry: `O=C(c1nnc(-c2ccccn2)o1)N1CCc2[nH]cnc2[C@H]1c1cc2ccccc2cn1`
[A] < 0.5 µM

[Q] What measured AC50 goes with `O=C(c1cnco1)N1CCc2[nH]cnc2[C@H]1c1ncc2ccccc2n1` ?
[A] < 0.5 µM

[Q] Record request: AC50 value, item `CC(C)(C)c1ncc(C(=O)N2CCc3[nH]cnc3[C@@H]2c2cc3ccccc3cn2)s1`
[A] > 5 µM

[Q] Any idea what AC50 was measured for `O=C(c1nnc(-c2ncccc2F)o1)N1CCc2[nH]cnc2[C@H]1c1cc2ccccc2cn1` ?
[A] < 0.5 µM

[Q] Need AC50 of O=C(c1nnc(-c2cc(C(F)(F)F)ccn2)o1)N1CCc2[nH]cnc2C1c1ccc2ccccc2n1 (stereo in doubt) [Example 107] , thanks.
[A] 0.5 to 1 µM

[Q] If you can, please state the reported AC50 value of `O=C(c1nnc(-c2ccc(F)cc2)o1)N1CCc2[nH]cnc2[C@@H]1c1ccc2ccccc2n1` .
[A] > 5 µM

[Q] What does the data say about its AC50? Entry: Cc1nc(C(C)(C)O)oc1C(=O)N1CCc2[nH]cnc2[C@@H]1c1ccc2ccccc2n1 (single isomer, unassigned)
[A] > 5 µM

[Q] Form field: reported AC50 of `O=C(c1oc(-c2ccccn2)nc1C(F)(F)F)N1CCc2[nH]cnc2[C@H]1c1cn2ccccc2n1`
[A] < 0.5 µM

[Q] Item `Cn1cnc(-c2nnc(C(=O)N3CCc4[nH]cnc4[C@H]3c3ncc4ccccc4n3)o2)c1` has what recorded AC50?
[A] 0.5 to 1 µM

[Q] Please report the recorded AC50 for `O=C(c1cnc(-c2cnn(CC(F)(F)F)c2)s1)N1CCc2[nH]cnc2[C@@H]1c1cc2ccccc2cn1` .
[A] > 5 µM

[Q] Requested field: AC50. Item: O=C(c1oc(-c2ccccn2)nc1C1CC1)N1CCCc2[nH]cnc2[C@@H]1c1cc2ccccc2cn1 (single isomer, unassigned)
[A] > 5 µM

[Q] Endpoint output: AC50 of O=C(c1ccnn1-c1ccccn1)N1CCc2[nH]cnc2C1c1ccc2ccccc2n1 (stereo in doubt) . Value?
[A] < 0.5 µM

[Q] Give its AC50 value. Item: O=C(c1ccnn1C(F)F)N1CCc2[nH]cnc2C1c1ccc2ccccc2n1 (stereo in doubt) [Example 81]
[A] < 0.5 µM

[Q] I would be grateful if you could share the reported AC50 for O=C(c1oc(C2CC(F)(F)C2)nc1C(F)F)N1CCc2[nH]cnc2C1c1ccc2ccccc2n1 (stereo in doubt) [Example 72] .
[A] 1 to 5 µM

[Q] Any idea what its AC50 is? The compound is O=C(c1nnc(-c2cc[nH]n2)o1)N1CCc2[nH]cnc2C1c1ccc2ccccc2n1 (stereo in doubt) [Example 115]
[A] < 0.5 µM

[Q] Can you look up the measured AC50 of O=C(c1oc(-c2ccccn2)nc1C(F)F)N1CCc2[nH]cnc2C1c1ccc2ccccc2n1 (stereo in doubt) for me?
[A] < 0.5 µM

[Q] Item CC(O)c1nc(Br)c(C(=O)N2CCc3[nH]cnc3[C@@H]2c2ccc3ccccc3n2)o1 (single isomer, unassigned) [Example 132] has what recorded AC50?
[A] 1 to 5 µM

[Q] Value lookup for AC50; key = `Cc1nc(-c2cnn(C)c2)oc1C(=O)N1CCc2[nH]cnc2[C@H]1c1ccc2ccccc2n1`
[A] < 0.5 µM

[Q] What does the data say about its AC50? Entry: O=C(c1nnc(C2CC2)o1)N1CCc2[nH]cnc2C1c1ccc2ccccc2n1 (stereo in doubt) [Example 9]
[A] 0.5 to 1 µM

[Q] Param item = CC(C)(O)c1nc(C(F)F)c(C(=O)N2CCc3[nH]cnc3C2c2ccc3ccccc3n2)o1 (stereo in doubt) [Example 91] ; retrieve measured AC50.
[A] < 0.5 µM

[Q] Requested read-out: AC50. Entry: O=C(c1nnc(-c2cc[nH]n2)o1)N1CCc2[nH]cnc2C1c1ccc2ccccc2n1 (stereo in doubt) [Example 116]
[A] 1 to 5 µM

[Q] Could you tell me which AC50 is on file for `O=C(c1ncn2ccccc12)N1CCc2[nH]cnc2[C@H]1c1cc2ccccc2cn1` ?
[A] < 0.5 µM

[Q] Find the recorded AC50 belonging to O=C(c1nnc(-c2ccc(F)cn2)o1)N1CCc2[nH]cnc2C1c1ccc2ccccc2n1 (stereo in doubt) [Example 33] and report it.
[A] 1 to 5 µM

[Q] Given the compound C[C@@H]1CN(C(=O)c2nnc(-c3ccccn3)o2)[C@H](c2cc3ccccc3cn2)c2nc[nH]c21 (single isomer, unassigned) , what is its reported AC50?
[A] 0.5 to 1 µM

[Q] Which value of AC50 has been reported for `COc1ccc(-c2nnc(C(=O)N3C[C@H](C)c4[nH]cnc4[C@@H]3c3cc4ccccc4cn3)o2)nc1` in the records?
[A] 1 to 5 µM

[Q] Recorded AC50 of O=C(CC1CC1)N1CCc2[nH]cnc2C1c1ccc2ccccc2n1 (stereo in doubt) [Example 42] , please.
[A] 1 to 5 µM

[Q] Please look up its AC50: `CN(C)Cc1ccc2c(C(=O)N3CCc4[nH]cnc4[C@@H]3c3ncc4ccccc4n3)cnn2c1`
[A] > 5 µM

[Q] Fill blank: measured AC50 of the compound O=C(c1nnc(C2CC2)o1)N1CCc2[nH]cnc2C1c1cc2ccccc2cn1 (stereo in doubt) is ____.
[A] > 5 µM
